Target: T1, monomeric human c-fms (residues 1-512)-pHis (human, UniProt P07333 20-512)
T1 construct: Construct stated as residues 1-512; signal stated as amino acids 1-19 and left out; also called human c-fms (1-512).pHIS; monomeric c-fms
T1 sequence (P07333 20-512): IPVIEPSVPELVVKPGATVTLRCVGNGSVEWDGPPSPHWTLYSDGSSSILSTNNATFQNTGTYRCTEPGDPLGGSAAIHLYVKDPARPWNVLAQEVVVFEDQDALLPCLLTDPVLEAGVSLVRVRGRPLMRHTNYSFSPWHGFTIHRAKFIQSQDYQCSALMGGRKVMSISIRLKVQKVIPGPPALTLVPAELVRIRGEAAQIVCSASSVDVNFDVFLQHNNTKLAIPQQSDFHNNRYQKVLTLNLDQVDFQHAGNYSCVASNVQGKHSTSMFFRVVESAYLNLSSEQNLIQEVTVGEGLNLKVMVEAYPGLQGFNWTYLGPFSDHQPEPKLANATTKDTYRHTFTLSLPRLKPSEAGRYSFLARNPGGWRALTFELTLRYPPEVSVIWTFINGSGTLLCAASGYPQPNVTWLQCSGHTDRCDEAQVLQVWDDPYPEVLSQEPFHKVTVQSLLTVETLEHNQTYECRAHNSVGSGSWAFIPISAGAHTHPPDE
Assay: Biacore, low resolution; hybridoma mAb captured on anti-human IgG, monomeric c-fms-pHis analyte at 125 nM
Rule: koff below 0.0008 s⁻¹ gives yes (1), anything at or above gives no (0).

Solved entries:
anti-c-fms hybridoma antibody 2.131 (antibody, IgG2, V domains shown, Hybridoma IgG2 (cohort 2); also called 2.131.2) VH: QVQLQESGPGLVKPSETLSLTCTVSGGSISNYYWSWIRQSAGKGLEWIGRIYTSGSTHYNPSLKSRIIMSVDTSKNQFSLKLSSVTAADTAVYYCARDRVFYGMDVWGQGTTVTVSS VL: DIQMTQSPSSLSASVGDRVTITCRASQGFSNYLAWYQQKPGKVPKLLIYAASTLQSGVPSRFSGSGSGTDFTLTISSLQPEDVATYYCQKYNSAPLTFGGGTKVEIK; yes (1)
anti-c-fms hybridoma antibody 2.508 (antibody, IgG2, V domains shown, Hybridoma IgG2 (cohort 2); also called 2.508.1; 2.508.2) VH: QVQLVQSGAEVKKPGASVKVSCKVSGYTLTELSMHWVRQAPGKGLEWMGGFDPEDGETIYAQKFQGRVTMTEDTSTDTAYMELSSLRSEDTAVYYCATAGLEIRWFDPWGQGTLVTVSS VL: DIVMTQSPLSLPVTPGEPASISCRSSQSLLHSNGYNYLDWYLQKPGQSPQFLIYLGSIRASGVPDRFSGSGSGTDFALTISRVEAEDVGVYYCMQALQTPRTFGQGTKVEIK; yes (1)
anti-c-fms hybridoma antibody 2.360 (antibody, IgG2, V domains shown, Hybridoma IgG2 (cohort 2)) VH: QVQLVQSGAEVKKPGASVKVSCKVSGYTLTELSMHWVRQAPGKGLEWMGGFDPEDGETIYAQKFQGRVTMTEDTSTDTVYMELSSLRSEDTAVYYCATGVMITFGGVIVGHSYYGMDVWGQGTTVTVSS VL: DIQMTQSPSSLSASVGDRVTITCRASQGINNYLAWYQQKPGKVPQLLIYVASTLQSGVPSRFSGSGSGTDFTLTISSLQPEDVATYYCQKYNSGPFTFGPGTKVDIK; yes (1)

Exercise: # TODO verify koff < 0.0008 s⁻¹ strictly for this binder: anti-c-fms hybridoma antibody 2.475 (antibody, IgG2, V domains shown, Hybridoma IgG2 (cohort 2); also called 2.475.2) VH: QVQLVESGGGVVQPGRSLRLSCAASGFTFISYGMHWVRQAPGKGLEWVAVIWYDGSNKYYADSVKGRFTISRDNSKNTLYLQMNSLRAEDTAVYYCADSSGDYYGMDVWGQGTTVTVSS VL: DIQMIQSPSSLSASVGDRVTITCQASHDISNYLNWYQQKPGKAPKFLISDASNLETGVPSRFSGSGSGTDFTFTISSLQPEDIATYYCQQYDNLPLTFGGGTKVEIK
Key: no (0)

Exercise: In plain terms, does anti-c-fms hybridoma antibody 2.534 (antibody, IgG2, V domains shown, Hybridoma IgG2 (cohort 2); also called 2.534.1; 2.534.2) VH: QVQLQESGPGLVKPSQTLSLTCTVSGGSISSGGYYWSWIRQHPGKGLEWIGYISYSGDTYYNPSLKSRLTISVDTSKHQFSLRLSSVTSADTAVYYCASLDLYGDYFDYWGQGTLVTVSS VL: EIVLTQSPDFQSVTPKEKVTITCRASQYIGSSLHWYQQTPDQSPKLLINYVSQSFSGVPSRFSGSGSGTDFTLTINSLEAEDAATYYCHQSSSLPFTFGPGTKVDIK come in under 0.0008 s⁻¹ for koff?
Key: no (0)
